Measured values drawn from the supplement of paper PMC10567573 for this set.

B1: KRT33B (parent)
chain: PAVDLNQVLNETRNQYEALVETNR

# Variants of: B1
# METHOD_DESCRIPTION: protein stability index of a GFP-peptide fusion (GPS, HEK-293T) (PSI 1-6); higher = more stable;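 further: lentivirally expressed fusions sorted by FACS into six bins by GFP to DsRed ratio, PSI derived from sequencing read proportions per bin multiplied by bin number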
# MEASUREMENT_CONTEXT: c terminus: a fixed tail appended
MEASURED_METRIC: protein stability index
Numbers only.

Example variants with recorded protein stability index:
INSERT INTO results (query_sequence, readout_number) VALUES
  ('PAVDLNQVLNETRNQYEALVEMNR [T22M]', 3.33),
  ('PAVDLNWVLNETRNQYEALVETNR [Q7W]', 4.22),
  ('PSVDLNQVLNETRNQYEALVETNR [A2S]', 3.23),
  ('PYVDLNQVLNETRNQYEALVETNR [A2Y]', 2.02),
  ('PAVVLNQVLNETRNQYEALVETNR [D4V]', 3.99);

For the 7 variants below, give their protein stability index values.
1. PAVFLNQVLNETRNQYEALVETNR [D4F]
2. PAVDLNQVLNETRNQYEALVEPNR [T22P]
3. PAVDLNQVLNETRNQYEALSETNR [V20S]
4. PAVDLNQPLNETRNQYEALVETNR [V8P]
5. PAVDLEQVLNETRNQYEALVETNR [N6E]
6. PAVDLNRVLNETRNQYEALVETNR [Q7R]
7. PAVDLNQVLGETRNQYEALVETNR [N10G]

## Output
1. 2.82
2. 4.65
3. 4.43
4. 5.14
5. 1.97
6. 3.95
7. 4.34

Answer for every listed entry: what is its protein stability index? The entries follow.
1. PAVDLNQVNNETRNQYEALVETNR [L9N]
2. PAVDCNQVLNETRNQYEALVETNR [L5C]

## Output
[5.13, 3.97]

Please go through the list and note protein stability index for each variant.
1. PAVDLNQVENETRNQYEALVETNR [L9E]
2. PAVDLNQVLNETRFQYEALVETNR [N14F]
3. PAVDLWQVLNETRNQYEALVETNR [N6W]
4. PAVDLNQVLNETRNQYYALVETNR [E17Y]
5. PATDLNQVLNETRNQYEALVETNR [V3T]
6. PAVDLNQVANETRNQYEALVETNR [L9A]
7. PAVDLNNVLNETRNQYEALVETNR [Q7N]

## Output
1: 4.93; 2: 3.54; 3: 1.82; 4: 3.09; 5: 3.87; 6: 5.16; 7: 4.33

For each of the variants below, state protein stability index.
1. PAVDLNTVLNETRNQYEALVETNR [Q7T]
2. PAVDLNQVLNETRNQYEDLVETNR [A18D]
3. PAVDLNQVLNETVNQYEALVETNR [R13V]
4. PAVDLNQVINETRNQYEALVETNR [L9I]
5. PAVDLNQVLAETRNQYEALVETNR [N10A]
6. PAVDLNQVLRETRNQYEALVETNR [N10R]

## Output
1. 2.97
2. 4.43
3. 4.15
4. 3.55
5. 2.98
6. 2.76
